Listing: Population Healthy Nuclei (%) of selected compounds
Test system: HEK-293T
measurement-notes: Multiplex assay against HEK293T
Assay type: toxicity, cell-based
study-conditions: human, 12 h, 10 µM, compound concentration 10 uM, replicate 2
observation-type: Population Healthy Nuclei (%)

# compound, tested-system, observation-type, result
measured = [
    ("NC(=O)c1cccc(-c2cc(Nc3ccc(OC(F)(F)F)cc3)ncn2)c1", "HEK-293T", "Population Healthy Nuclei (%)", "89%"),
    ("CNc1cc(Oc2cc(C(=O)Nc3cc(N4CCN(C)CC4)cc(C(F)(F)F)c3)ccc2C)ncn1", "HEK-293T", "Population Healthy Nuclei (%)", "4%"),
    ("Cc1ccc2nc(NCCN)c3ncc(C)n3c2c1.O=C(O)C(F)(F)F.O=C(O)C(F)(F)F", "HEK-293T", "Population Healthy Nuclei (%)", "83%"),
    ("CCCS(=O)(=O)c1nc(NC2CC2)cc(-c2ccc3c(ccn3C3CC(C)(C)NC(C)(C)C3)c2)n1", "HEK-293T", "Population Healthy Nuclei (%)", "1%"),
    ("Cc1ccc(C(=O)Nc2cccc(C(F)(F)F)c2)cc1Nc1nc(-c2cccnc2)nc2c1cnn2C", "HEK-293T", "Population Healthy Nuclei (%)", "13%"),
    ("CCOC(=O)c1c(C)[nH]c2ccc3c(c12)CN1CCc2cc(OC)ccc2C1O3 (stereo not drawn)", "HEK-293T", "Population Healthy Nuclei (%)", "10%"),
    ("COC(=N)c1nc2ccc3ncnc(Nc4ccc(OC)cc4F)c3c2s1", "HEK-293T", "Population Healthy Nuclei (%)", "88%"),
    ("C=C1/C(=C\\C=C2/CCC[C@]3(C)[C@@H]([C@H](C)/C=C/[C@H](C)C(C)C)CC[C@@H]23)C[C@@H](O)C[C@@H]1O", "HEK-293T", "Population Healthy Nuclei (%)", "35%"),
]

These entries and their values trace back to ChEMBL document CHEMBL4689842.
